B1: LOC100129726 (parent)
chain: VHTGCHKKLGPEARRPRTRWGKN

variants of: B1; assay: protein stability index of a GFP-peptide fusion (GPS, HEK-293T) (PSI 1-6); higher = more stable; conditions: c terminus: native;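 note: lentivirally expressed fusions sorted by FACS into six bins by GFP to DsRed ratio, PSI derived from sequencing read proportions per bin multiplied by bin number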
Tick T if protein stability index is 2 or greater. Tick F if protein stability index is less than 2.

Sample answers from the record:
Task: Kindly determine if protein stability index recorded for A13N is above or exactly 2.
Result: F

Task: Kindly determine if protein stability index recorded for L9R is above or exactly 2.
Result: T

Task: Reported protein stability index at or above 2? K22P
Result: T

Task: Form field: protein stability index at least 2? Entry: C5L
Result: T

Task: Entry H2M : is its protein stability index no less than 2?
Result: T

Task: Could you please find out whether G21D has protein stability index that meets 2 or exceeds it?
Result: T

Task: protein stability index >= 2 for R17G ?
Result: T

Task: Determine whether this variant has protein stability index no lower than 2: G4L
Result: T

***
Task: Reported protein stability index at or above 2? R17S
Result: T

Task: Hi team, for W20T , is the recorded protein stability index at or above 2?
Result: T

Task: Confirm if protein stability index reported for the variant W20Q is 2 or above.
Result: T

Task: Test whether the variant V1I records protein stability index of 2 or higher.
Result: T

Task: Item H2W with protein stability index of 2 or above?
Result: F

Task: Hi, just wondering whether E12Y shows protein stability index of 2 or higher.
Result: T

Task: Can E12C be said to have protein stability index at or above 2?
Result: T

Task: Evaluate E12L : protein stability index at minimum 2?
Result: T

Task: Please check the record W20C and state if its protein stability index is at or above 2.
Result: T

Task: Textbook exercise: given the entry W20I , state whether its protein stability index is greater than or equal to 2.
Result: T

Task: Assess whether reported protein stability index for E12T sits at 2 or higher.
Result: F

Reference source for all entries: the supplement of paper PMC10567573
